target.under.test: human CD3 on cells (human PBMC; Jurkat TCR/CD3 NFAT reporter cells) (human, UniProt P07766 23-207; P04234 22-171; P09693 23-182)
Sequence (P07766 23-207, chain 1 of 3): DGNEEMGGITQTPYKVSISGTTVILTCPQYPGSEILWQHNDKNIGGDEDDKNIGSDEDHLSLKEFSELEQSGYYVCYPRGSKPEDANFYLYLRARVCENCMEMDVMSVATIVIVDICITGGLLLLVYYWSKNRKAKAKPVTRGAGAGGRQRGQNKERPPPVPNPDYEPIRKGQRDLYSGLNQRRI
Sequence (P04234 22-171, chain 2 of 3): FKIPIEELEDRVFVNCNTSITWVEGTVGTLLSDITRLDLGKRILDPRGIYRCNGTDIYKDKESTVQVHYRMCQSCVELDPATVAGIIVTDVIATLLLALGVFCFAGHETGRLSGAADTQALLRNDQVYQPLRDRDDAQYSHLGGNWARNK
Sequence (P09693 23-182, chain 3 of 3): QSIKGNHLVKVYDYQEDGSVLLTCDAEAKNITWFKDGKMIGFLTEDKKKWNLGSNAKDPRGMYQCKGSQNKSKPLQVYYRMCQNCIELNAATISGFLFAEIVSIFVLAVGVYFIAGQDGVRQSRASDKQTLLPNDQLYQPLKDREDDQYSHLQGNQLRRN
experiment.summary: cell-based or functional assay
measured.quantity: % of SP34
Dear colleague, please send the value followed by its unit.

Data request: Give reported % of SP34 value for Hu155A9B1-17 (antibody, V domains shown, humanized mAb) VH: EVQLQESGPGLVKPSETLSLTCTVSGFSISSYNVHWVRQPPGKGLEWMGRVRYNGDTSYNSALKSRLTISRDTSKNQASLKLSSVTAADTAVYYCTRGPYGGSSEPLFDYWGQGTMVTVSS VL: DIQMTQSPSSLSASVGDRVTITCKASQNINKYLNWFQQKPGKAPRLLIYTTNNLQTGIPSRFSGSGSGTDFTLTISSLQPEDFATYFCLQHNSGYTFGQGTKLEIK
Data returned: 76%

Data request: Determine its reported % of SP34: Hu153A6B1-5 (antibody, V domains shown, humanized mAb) VH: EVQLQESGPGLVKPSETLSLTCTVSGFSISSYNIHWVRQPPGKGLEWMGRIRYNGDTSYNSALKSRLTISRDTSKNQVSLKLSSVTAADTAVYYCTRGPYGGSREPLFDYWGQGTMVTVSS VL: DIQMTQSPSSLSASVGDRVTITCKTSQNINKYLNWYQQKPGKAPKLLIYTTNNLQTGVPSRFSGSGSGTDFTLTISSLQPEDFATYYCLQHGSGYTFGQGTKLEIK
Data returned: 78.5%

Data request: Please look at this binder and report its % of SP34: Hu153A6B1-12 (antibody, V domains shown, humanized mAb) VH: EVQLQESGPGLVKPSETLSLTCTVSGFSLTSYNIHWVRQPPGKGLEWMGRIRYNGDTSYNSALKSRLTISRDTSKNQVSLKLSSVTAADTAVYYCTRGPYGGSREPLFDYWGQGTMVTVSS VL: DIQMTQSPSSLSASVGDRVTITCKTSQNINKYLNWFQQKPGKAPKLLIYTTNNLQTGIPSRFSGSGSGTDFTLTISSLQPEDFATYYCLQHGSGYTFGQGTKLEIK
Data returned: 87.5%
